Each recorded value in this set is attributed to patent US6235751A.

- System: Staphylococcus aureus 285
- measurement_description: Antibacterial activity in vitro (MIC, two-fold agar dilution)
- test_conditions: Staphylococcus aureus, 285, 18 h, read-out: Minimal Inhibitory Concentration (MIC)
value_kind: MIC (µg/mL)
Lab book: enter the figure in µg/mL, no units written.

{"compound": "O=C(O)c1cn(C2CC2)c2cc(N3CCNCC3)c(F)cc2c1=O [Ciprofloxacin, reference compound]", "MIC, µg/mL": 0.781}
{"compound": "Cc1c(N2CC3=CCCN[C@H]3C2)c(F)cn2c(=O)c(C(=O)O)cc(C3CC3)c12", "MIC, µg/mL": 0.013}
{"compound": "Cc1c(N2CC(CN)C(OCc3cccnc3)C2)c(F)cn2c(=O)c(C(=O)O)cc(C3CC3)c12 (stereo not shown)", "MIC, µg/mL": 0.013}

In the following, a different compound is considered.
query: So what's the measured MIC for this one? CC1CN(c2c(F)c(N)c3c(=O)c(C(=O)O)cn(C4CC4)c3c2F)CC(C)N1 (stereo not shown) [Sparfloxacin, reference compound]
result: 0.049
